B1: RHOBTB3 (parent)
chain: GGADIIVIKYNVNDKFSFHEVKDN

# Variants of: B1
# Protocol summary: protein stability index of a GFP-peptide fusion (GPS, HEK-293T) (PSI 1-6); higher = more stable;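 further: lentivirally expressed fusions sorted by FACS into six bins by GFP to DsRed ratio, PSI derived from sequencing read proportions per bin multiplied by bin number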
# Assay setup: c terminus: a fixed tail appended
Quantity name: protein stability index

| Residue sequence | Reading |
| --- | --- |
| GGADYIVIKYNVNDKFSFHEVKDN | 1.78 |
| DGADIIVIKYNVNDKFSFHEVKDN | 2.67 |
| GGADIIVIKYNVNDKFSFQEVKDN | 3.57 |
| GGADIIVIKYNVNDKFSFHDVKDN | 3.45 |
| GGADIIVIKVNVNDKFSFHEVKDN | 3.23 |
| GGADIIVIKYNVNDKFSFKEVKDN | 2.44 |
| GGADIIVQKYNVNDKFSFHEVKDN | 3.48 |
| GGADIIVIKYNVNDKFSFHEVKWN | 3.21 |
| GGADIIVIKYNVNDKFSFHEVKPN | 3.16 |
| GGADIIVIKYNVNDKFSRHEVKDN | 4.04 |
| GGADIIVIKYNVNDKFSFHAVKDN | 1.55 |
| GGADIGVIKYNVNDKFSFHEVKDN | 4.03 |
| GGADIIVIKYWVNDKFSFHEVKDN | 3.58 |
| GGQDIIVIKYNVNDKFSFHEVKDN | 2.73 |
| GGADIHVIKYNVNDKFSFHEVKDN | 2.92 |
| GGAGIIVIKYNVNDKFSFHEVKDN | 3.68 |
| GGADIIVIKYNVNDKFVFHEVKDN | 1.73 |
| GGADIIIIKYNVNDKFSFHEVKDN | 2.46 |
| GGADIIVIKYNVNDKFSFHGVKDN | 2.78 |
| GGADIIVIKYNVNDKFSFHEVHDN | 3.97 |
| GGADIIVIKYNVNDKFSFHEVKDG | 3 |
| GGADIIVIKYNVNDKFSLHEVKDN | 2.53 |
| GGADIIVIKYNVNDKHSFHEVKDN | 1.53 |

This collection of values is drawn from the supplement of paper PMC10567573.
